test system: MS2 coat protein; test: apparent KD of MS2 coat protein; designed switch direction (-1 OFF switch, 1 ON switch): 1; higher = weaker reporter binding; conditions: input ligand: microRNA oligo, concentration not stated
experimental.readout: apparent KD of MS2 coat protein (nM)
One number for each entry, in nM.

construct.sequence: CCGAUUUAUGGAGGAUAUGGAGCCUUAUUGGCUCCAGAAGGUCAAUAAACAUGAGGAUCACCCAUGUCGGCGGUCAAUAGACCG [Eli NG1ss - 71] (Eterna round: R96, puzzle: Same State NG 1)
apparent KD of MS2 coat protein (nM): 84.4
--
construct.sequence: GCUGCAUGGGCAGGAUAUGGGUCCAAAGCGCAAGUGCGCUUUGGUACAUGAGGAUCACCCAUGUCCCAGAAGGGCCCAAGCGGC [Inorgeesbi] (Eterna round: R96, puzzle: Same State NG 2)
apparent KD of MS2 coat protein (nM): 87.9

As a next step, examine the sequence that follows.
// field: apparent KD of MS2 coat protein; key: UUAUCUCAGACAUGAGGAUCACCCAUGUGGUUUUGACUUAGACAGGAUAUAGUAGUAUCGAAAUACUAGAAGGGUCAUUUUAUU [JR_SSNG3_Sub022] (Eterna round: R96, puzzle: Same State NG 3) ; value = 99.5

---

system: MS2 coat protein; experiment: apparent KD of MS2 coat protein; designed switch direction (-1 OFF switch, 1 ON switch): -1; higher = weaker reporter binding; conditions: input ligand: FMN 200 uM
experimental.readout: apparent KD of MS2 coat protein (nM)
Give bare numbers, in nM.

// below: answered sequences
construct.sequence: UGAUCACAUGAGGAUCACCCAUGUCAGGAUAUCGUCACUGGAGCCUCGGCUCCAGUGACGAGAAGGGACAUAAU [E1/3-A2] (Eterna round: R97, puzzle: Exclusion 1)
reported.measurement: 137

construct.sequence: AACCUGAGGCAAAGCUUUAGGUGUACAUGAGGAUCACCCAUGUAGGAUAUGGUAGGCUUUGCUUACCAGAAGGACAUAAUGAUG [Mat - Exclusion NG 3 - Mod of JL - D46] (Eterna round: R96, puzzle: Exclusion NG 3)
reported.measurement: 92.2

construct.sequence: UGUUGUUCCGAAGGAUAUGUAUGAGGAUCACCCAUAAGAGUUGAUGUACCAUGAGGAUCACCCAUGUAGAAGGUCGGGUUAACU [pwkr exNG2 2xF5 1xFMN.20] (Eterna round: R96, puzzle: Exclusion NG 2)
reported.measurement: 200

Hey, can you go through the list below and give me apparent KD of MS2 coat protein for every item?
1. UAUUAUCAAGCAAGAUCCCACAUGAGGAUCACCCAUGUGCUCGUCUUAUUUCUGGCCUUAUUGGUCUCUCGUCUAAU [JR_STOV1_v2_Sub095] (Eterna round: R97, puzzle: Sensor, turn-off variant 1)
2. GCACGGAGUGUAGGAUAUCUGUGCGAUUAGCUCAGAGAAGGACACAUGAGGAUCACCCAUGUGUUCCACCGAAAGGUUCCGUGC [Eli exng1 - 048] (Eterna round: R96, puzzle: Exclusion NG 1)
3. UACAUGAGGAUCACCCAUGUUUUGUCGUGUAUGGUAUUUAUCUAGGAUAUCAAUGUAUAUAUUUAUGAGAAGGAGAAUAUUAAU [JMF's solution 42] (Eterna round: R96, puzzle: Exclusion NG 3)
4. UGUUGUUCAGGAUAUGAUGUAUAAUACAUGAGGAUCACCCAUGUAGAUCCUGAAUUAACAUCAGAAGGGAAUAUUU [JL-ex5-4.59 Brourd mod] (Eterna round: R97, puzzle: Exclusion 5)
5. UGAGCUACAGGAUAUACAAGGCGACCGUGAGGUCGAAGGUUACAUGAGGAUCACCCAUGUAGAAGGGUAGUUCU [Mat - Exclusion 2 - JL Mod - D15] (Eterna round: R97, puzzle: Exclusion 2)
6. UCUUAUUGAGGAUAUACAGAUUAUUACAUGAGGAUCACCCAUGUUCUUCAAUGUAUAUAUGUAGAAGGCAGAGGAU [Mat - Exclusion 5 - JL Mod - D12] (Eterna round: R97, puzzle: Exclusion 5)
7. GCCUCGUCAGGAUAUUGGGAAGGCUGUUUUAUGAUUGCCCACAAGAAGGGACAUGAGGAUCACCCAUGUACAUU [Eternabot (L1) Solution 51] (Eterna round: R97, puzzle: Exclusion 4)

1. 25.8
2. 11
3. 37.4
4. 19.8
5. 130
6. 217
7. 63.3

Hey, can you go through the list below and give me apparent KD of MS2 coat protein for every item?
1. AUAUCGUGAGGAUAUCCAAUAUAUGACAUGAGGAUCACCCAUGUUUCCACUCGUACCUCCGGAGAAGGCACAGUUA [Ex5 #72] (Eterna round: R97, puzzle: Exclusion 5)
2. AAAAAACAUGAGGAUCACCCAUGUGAGGAUAUGCUAAAAAAAUCCGCAUGAAAAAAUAGCAGAAGGCACAUAAA [PK2] (Eterna round: R96, puzzle: Exclusion 1)
3. CCCAGUUAUUGAGGAUAUCCUACAUGAGGAUCACCCAUGUAAUAAAUGAGGAUUUCGGGUGUCUAGGAGAAGGCAAGGAUAGGC [Ostracism 22 - Jieux - Exclusion NG 2] (Eterna round: R96, puzzle: Exclusion NG 2)
4. AAAAAAAGACAAGAGGAGAAUCGUCUUAAAAAUCCUCAGACAUGAGGAUCACCCAUGUAAAAUGAUCGAAAGAUCAA [Mat - Sensor v2 - ver2 - JL mod - D42] (Eterna round: R96, puzzle: Sensor v2, turn-off variant 2)
5. UAACUUCUUGUAAGGAUAUCGGCGCGAAAGCGCAACGAGAAGGUACAUGAGGAUCACCCAUGUGAAAUAAGAAU [Mod of Zala 12 - Jieux - Brourd's Mod of Exclusion 4] (Eterna round: R97, puzzle: Brourd's mod of Exclusion 4)
6. ACAUGAGGAUCACCCAUGUCCGGCUGGUCUGUUUCGGUUGUCGAGGAUAUAGUUCGGUGUUCGCGCUAGAAGGUGGGAGCUGGC [Aenatbe mod 57] (Eterna round: R96, puzzle: Exclusion NG 3)

1: 23.9; 2: 93.5; 3: 63.7; 4: 39.7; 5: 104; 6: 143

// field: apparent KD of MS2 coat protein; key: ACAUGAGGAUCACCCAUGUAAACAUGAUGGCUGAUGUAGAGCUAGGAUAUGAGUGGCUUUCUAUCUCAGAAGGAGCUUGACUGG [Deportation 43 - Jieux - Exclusion NG 3] (Eterna round: R96, puzzle: Exclusion NG 3) ; value = 30.8
